- Study Target: IL-17A/A (Homo sapiens, UniProt Q16552)
- Sequence (Q16552 24-155): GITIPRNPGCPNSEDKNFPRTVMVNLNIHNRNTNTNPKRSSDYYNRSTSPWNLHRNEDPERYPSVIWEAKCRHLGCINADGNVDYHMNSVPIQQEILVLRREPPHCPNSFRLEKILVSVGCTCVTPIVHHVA
- Procedure Summary: IL-17A/A HEK-Blue cell assay (SEAP reporter)
- Measurement Parameters: HEK-Blue IL-17A reporter cells, IL17A/A 5 ng/mL, 20 hours, SEAP read at A630; read-out: HEK-Blue IL17AA (IC50 for IL-17A/A inhibition)
pIC50: −log10 of the molar value.
Property: pIC50; scope: individual compounds

{"Smiles Representation": "CCn1nccc1C(=O)N[C@H](c1cn2nc(C[C@H]3C[C@@H](C(F)(F)F)CNC3=O)c(CNCC(F)(F)F)nc2n1)C1CCC(F)(F)CC1", "pIC50": "> 7.00"}
{"Smiles Representation": "CCn1nccc1C(=O)N[C@H](c1cn2nc(C[C@H]3C[C@@H](C(F)(F)F)CNC3=O)c(CN3CC4(CC4)C3)nc2n1)C1CCC(F)(F)CC1", "pIC50": "6.00 to 7.00"}
{"Smiles Representation": "CCn1nccc1C(=O)N[C@H](c1cn2nc(C[C@H]3C[C@H](C)CNC3=O)c(C3CCOCC3)nc2n1)C1CCC(F)(F)CC1", "pIC50": "> 7.00"}

---

- Study Target: IL-17A/F (Homo sapiens, UniProt Q16552+Q96PD4)
- Sequence (Q16552 24-155): as above
- Sequence (Q96PD4 31-163): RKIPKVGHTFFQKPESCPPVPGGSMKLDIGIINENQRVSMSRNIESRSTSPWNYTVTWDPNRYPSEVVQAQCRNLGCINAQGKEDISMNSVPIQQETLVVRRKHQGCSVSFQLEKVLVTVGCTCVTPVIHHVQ
- Procedure Summary: IL-17A/F HEK-Blue cell assay (SEAP reporter)
- Measurement Parameters: HEK-Blue IL-17A reporter cells, IL17A/F 5 ng/mL, 20 hours, SEAP read at A630; read-out: HEK-Blue IL17AF (IC50 for IL-17A/F inhibition)
Value Type: IC50

{"Molecule": "CCn1nccc1C(=O)N[C@H](c1cn2nc(C[C@H]3C[C@@H](C(F)(F)F)CNC3=O)c(CN3CCOCC3)nc2n1)C1CCC(F)(F)CC1", "Value Type": "IC50", "Test Result": "> 1 µM"}
{"Molecule": "CCn1nccc1C(=O)N[C@H](c1cn2nc(C[C@H]3C[C@@H](C(F)(F)F)CNC3=O)c(N(C)C3CC3)nc2n1)C1CCC(F)(F)CC1", "Value Type": "IC50", "Test Result": "0.1 to 1 µM"}
{"Molecule": "CCn1nccc1C(=O)N[C@H](c1cn2nc(CC3C[C@@H](C(F)(F)F)CNC3=O)c(N3CCOCC3)nc2n1)[C@H]1CC[C@H](C)CC1 (stereo partly drawn) [Compound 58]", "Value Type": "IC50", "Test Result": "0.1 to 1 µM"}
{"Molecule": "CCn1nccc1C(=O)N[C@H](c1cn2nc(C[C@H]3C[C@@H](C(F)(F)F)CNC3=O)c(N3CCOC[C@H]3C)nc2n1)C1CCC(F)(F)CC1", "Value Type": "IC50", "Test Result": "0.1 to 1 µM"}
{"Molecule": "CCn1nccc1C(=O)N[C@H](c1cn2nc(CC3C[C@@H](C(F)(F)F)CNC3=O)c(N3CCOCC3)nc2n1)[C@H]1CC[C@H](C)CC1 (stereo partly drawn) [Compound 59]", "Value Type": "IC50", "Test Result": "> 1 µM"}
{"Molecule": "CCn1nccc1C(=O)N[C@H](c1cn2nc(C[C@@H]3CC(F)(F)CNC3=O)cnc2n1)C1CCC(F)(F)CC1 (single isomer, unassigned)", "Value Type": "IC50", "Test Result": "> 1 µM"}

---

Property: IC50; scope: individual compounds
- Study Target: IL-17A/F (Homo sapiens, UniProt Q16552+Q96PD4)
- Procedure Summary: IL-17A/F HEK-Blue cell assay (SEAP reporter)
- Measurement Parameters: HEK-Blue IL-17A reporter cells, IL17A/F 5 ng/mL, 20 hours, SEAP read at A630; read-out: HEK-Blue IL17AF (IC50 for IL-17A/F inhibition)
Value Type: IC50

{"Compound": "CCn1nccc1C(=O)N[C@H](c1cn2nc(C[C@@H]3C[C@@H](C)CNC3=O)c(C3CCOCC3)nc2n1)C1CCC(F)(F)CC1", "Study Target": "IL-17A/F (Homo sapiens, UniProt Q16552+Q96PD4)", "Test Result": "> 1000 nM"}
{"Compound": "CCn1nccc1C(=O)N[C@H](c1cn2nc(CC3C[C@@H](C(F)(F)F)CNC3=O)c(N3CCO[C@H](C)C3)nc2n1)[C@@H]1CCCC(F)(F)C1 (single isomer, unassigned) [Compound 124]", "Study Target": "IL-17A/F (Homo sapiens, UniProt Q16552+Q96PD4)", "Test Result": "100 to 1000 nM"}
{"Compound": "CCn1nccc1C(=O)N[C@H](c1cn2nc(C[C@H]3C[C@H](C(F)(F)F)CNC3=O)c(C3CCOCC3)nc2n1)C1CCC(F)(F)CC1", "Study Target": "IL-17A/F (Homo sapiens, UniProt Q16552+Q96PD4)", "Test Result": "100 to 1000 nM"}
{"Compound": "CCn1nccc1C(=O)N[C@H](c1cn2nc(CC3C[C@@H](C(F)(F)F)CNC3=O)c(N3C[C@H]4C[C@@H]3CO4)nc2n1)[C@H]1CC[C@H](C)CC1 (single isomer, unassigned) [Compound 106]", "Study Target": "IL-17A/F (Homo sapiens, UniProt Q16552+Q96PD4)", "Test Result": "> 1000 nM"}
{"Compound": "CCn1nccc1C(=O)N[C@H](c1cn2nc(C[C@@H]3C(=O)NC[C@@H]4C[C@@H]43)c(C3CCOCC3)nc2n1)C1CCC(F)(F)CC1", "Study Target": "IL-17A/F (Homo sapiens, UniProt Q16552+Q96PD4)", "Test Result": "> 1000 nM"}

---

- Study Target: IL-17A/F (Homo sapiens, UniProt Q16552+Q96PD4)
- Procedure Summary: IL-17A/F HEK-Blue cell assay (SEAP reporter)
- Measurement Parameters: HEK-Blue IL-17A reporter cells, IL17A/F 5 ng/mL, 20 hours, SEAP read at A630; read-out: HEK-Blue IL17AF (IC50 for IL-17A/F inhibition)
pIC50: −log10 of the molar value.

{"Compound": "CCn1nccc1C(=O)N[C@H](c1cn2nc(C[C@H]3C[C@@H](C(F)(F)F)CNC3=O)c(C3CCCN(CCOC)C3)nc2n1)C1CCC(F)(F)CC1 (stereo partly drawn)", "pIC50": "< 6.00"}
{"Compound": "CCn1nccc1C(=O)N[C@H](c1cn2nc(C[C@H]3C[C@@H](C(F)(F)F)CNC3=O)c(CN3CCC4(CC4)C3)nc2n1)C1CCC(F)(F)CC1", "pIC50": "< 6.00"}
{"Compound": "CCn1nccc1C(=O)N[C@H](c1cn2nc(CC3C[C@@H](C(F)(F)F)CNC3=O)c(N3CC4CCC(C3)O4)nc2n1)[C@H]1CC[C@H](C)CC1 (single isomer, unassigned) [Compound 104]", "pIC50": "> 7.00"}
{"Compound": "CCn1nccc1C(=O)N[C@H](c1cn2nc(C[C@H]3C[C@@H](C(F)(F)F)CNC3=O)c(N3CCO[C@H](C)C3)nc2n1)C1CCC(F)(F)CC1", "pIC50": "> 7.00"}
{"Compound": "CCn1nccc1C(=O)N[C@H](c1cn2nc(C[C@H]3C[C@@H](C(F)(F)F)CNC3=O)c(C3COC4(C3)CN(C)C4)nc2n1)C1CCC(F)(F)CC1 (stereo partly drawn)", "pIC50": "< 6.00"}
{"Compound": "O=C(N[C@H](c1cn2nc(C[C@H]3C[C@@H](C(F)(F)F)CNC3=O)c(C3CCCOC3)nc2n1)[C@H]1CCCC(F)(F)C1)c1nonc1C1CC1 (single isomer, unassigned) [Compound 125]", "pIC50": "< 6.00"}
{"Compound": "CC(C)n1nccc1C(=O)N[C@H](c1cn2nc(C[C@H]3C[C@@H](C(F)(F)F)CNC3=O)c(C3CCOC3)nc2n1)C1CCC(F)(F)CC1 (single isomer, unassigned) [Compound 132]", "pIC50": "6.00 to 7.00"}
{"Compound": "CCn1nccc1C(=O)N[C@H](c1cn2nc(C[C@H]3C[C@@H](C(F)(F)F)CNC3=O)c(C3Cc4cncnc4C3)nc2n1)C1CCC(F)(F)CC1 (single isomer, unassigned) [Compound 400]", "pIC50": "6.00 to 7.00"}
{"Compound": "CCn1nccc1C(=O)N[C@H](c1cn2nc(C[C@H]3C[C@@H](C(F)(F)F)CNC3=O)c(CNC)nc2n1)C1CCC(F)(F)CC1", "pIC50": "< 6.00"}
{"Compound": "CCn1nccc1C(=O)N[C@H](c1cn2nc(C[C@H]3C[C@@H](C(F)(F)F)CNC3=O)c(C3CCOC3)nc2n1)[C@@H]1CCCC(F)(F)C1 (single isomer, unassigned) [Compound 72]", "pIC50": "6.00 to 7.00"}
{"Compound": "CCn1nccc1C(=O)N[C@H](c1cn2nc(CC3C[C@@H](C(F)(F)F)CNC3=O)c(N3CC4CC(C3)O4)nc2n1)[C@@H]1CCCC(F)(F)C1 (single isomer, unassigned) [Compound 97]", "pIC50": "< 6.00"}
{"Compound": "CCn1nccc1C(=O)N[C@H](c1cn2nc(C[C@H]3C[C@@H](C(F)(F)F)CNC3=O)c(N3C[C@@H](C)O[C@H](C)C3)nc2n1)C1CCC(F)(F)CC1", "pIC50": "> 7.00"}
{"Compound": "Cn1nccc1C(=O)N[C@H](c1cn2nc(C[C@H]3C[C@@H](C(F)(F)F)CNC3=O)c([C@@H]3CCCOC3)nc2n1)[C@H]1CCCC(F)(F)C1 (single isomer, unassigned)", "pIC50": "6.00 to 7.00"}
{"Compound": "CCn1nccc1C(=O)N[C@H](c1cn2nc(C[C@H]3C[C@@H](C(F)(F)F)CNC3=O)c(N3CCN(C)[C@H](C)C3)nc2n1)C1CCC(F)(F)CC1", "pIC50": "> 7.00"}
{"Compound": "CCn1nccc1C(=O)N[C@H](c1cn2nc(C[C@H]3C[C@@H](C(F)(F)F)CNC3=O)c(C34COC(C3)C4)nc2n1)C1CCC(F)(F)CC1", "pIC50": "6.00 to 7.00"}
{"Compound": "CCn1nccc1C(=O)N[C@H](c1cn2nc(C[C@H]3C[C@@H](C(F)(F)F)CNC3=O)c([C@@H]3CCC(C)(C)OC3)nc2n1)C1CCC(F)(F)CC1 (single isomer, unassigned)", "pIC50": "6.00 to 7.00"}
{"Compound": "CCn1nccc1C(=O)N[C@H](c1cn2nc(C[C@H]3C[C@H](C(F)(F)F)CNC3=O)c(N3CCO[C@@H](C)C3)nc2n1)[C@@H]1CCCC(F)(F)C1", "pIC50": "6.00 to 7.00"}
{"Compound": "Cc1nonc1C(=O)N[C@H](c1cn2nc(C[C@@H]3C[C@@H](C)CNC3=O)c(C3CCOCC3)nc2n1)C1CCC(F)(F)CC1", "pIC50": "< 6.00"}
{"Compound": "CCn1ncnc1C(=O)N[C@H](c1cn2nc(C[C@H]3C[C@H](C)CNC3=O)c(C3CCOCC3)nc2n1)C1CCC(F)(F)CC1", "pIC50": "< 6.00"}
{"Compound": "CCn1nccc1C(=O)N[C@H](c1cn2nc(C[C@H]3C[C@@H](C(F)(F)F)CNC3=O)c(C3CCOC3)nc2n1)C1CCC(F)(F)CC1 (single isomer, unassigned) [Compound 61]", "pIC50": "6.00 to 7.00"}
{"Compound": "Cc1nonc1C(=O)N[C@H](c1cn2nc(C[C@H]3C[C@@H](C(F)(F)F)CNC3=O)c(C3CCOCC3)nc2n1)[C@H]1C[C@H]2C[C@H]2C1", "pIC50": "< 6.00"}
